assay: NCI Yeast Anticancer Drug Screen. Data for the mlh1 rad18 strain (AID 175); conditions: S. cerevisiae mlh1 rad18 strain growth inhibition; at 50.0 µM (retest, dose inferred, filed as 5.0)
This is part of a sample that, as a whole, favours compounds with a hit. Of some 79,000 tested, about 15% had one in any assay. Active and inactive are the calls of the source. Cut-off read from the data, not from the text of the source: active = growth inhibition above about 70%; inactive = the rest.
Tick one outcome: true (active), false (inactive)

* CCN(CC)c1ccc(N=Nc2ccc(-c3nc4cccn(C)c-4n3)cc2)cc1 | false
* C=CCC(O)C(=O)OC1CC(C)CCC1C(C)(C)c1ccccc1 (stereo unspecified) | true
* CCOC(=O)C(CCSC)C(=O)OCC | false
* c1ccc(-c2cnc3nc4ccccc4nc3n2)cc1 | true

Here is the next item to consider.
Query :: Could you check what this test reported for CCN(CC)CCOc1ccc(/C(C#N)=C/c2ccc(C(F)(F)F)cc2)cc1 ?
Result :: true

---

Experiment: NCI Yeast Anticancer Drug Screen. Data for the rad50 strain (AID 155);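 note: 0% = growth of vehicle-only cultures of the same strain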
Settings: S. cerevisiae rad50 strain growth inhibition; at 50.0 µM
Method: Growth inhibition of yeast strains with defined genetic alterations is measured as a screen for potential anti-cancer activity. Selected strains with alterations in DNA damage repair or cell cycle control were exposed to compounds and growth inhibition was measured relative to vehicle treated controls. The strain used in this assay is rad50
The panel holds about 79,000 compounds, 15% with a hit somewhere; the sample as a whole holds those more often. The source made the active and inactive calls. Rule as the data show it: active = growth inhibition above about 70%; inactive = the rest.
Your answer must be one of the following: active, inactive

See these solved cases before continuing.
• C/C(Cl)=N\OC(=O)Nc1ccc(C)cc1 = inactive
• Cc1cc(/C=C/c2cccc[n+]2C)c(C)n1-c1ccccc1 = active
• COc1ccc(OC)c2c(C(=O)O)c(C(C)c3ccccc3)ccc12 (stereo not drawn) = active
• C[C@]12CCC(=O)C=C1CC[C@@H]1[C@@H]2[C@@H](O)C[C@@]2(C)[C@H]1CC[C@]2(O)C(=O)COC(=O)C1CCCC1 = active
• CCCCCCCCCCCCCC(=O)N1CCOCC1 = active
• CN1C(=O)C2N(C(=O)C1(C)S)c1ccccc1C2(C)C (stereo not drawn) = inactive
• COc1ccc(NC(=O)CCC(=O)CC(=O)c2ccncc2)cc1 = inactive
• CCN(CC)CC(O)CNc1ccc(C)c2sc3ccccc3c(=O)c12 (stereo not drawn) = active

Query :: Recorded call for COCCCNC(=O)SC ?
Result :: inactive

Query :: Continue with CCCCOc1c(OCCCC)c(=O)c1=O
Result :: inactive

Query :: What about this compound? Clc1ccc2c(NCCCCCCNc3ccnc4cc(Cl)ccc34)ccnc2c1
Result :: inactive

---

experiment: NCI Yeast Anticancer Drug Screen. Data for the mlh1 rad18 strain (AID 175); details: S. cerevisiae mlh1 rad18 strain growth inhibition; at 5.0 µM (retest, dose inferred, filed as 0.5)
About 79,000 compounds went through this panel and 15% of them were active in at least one assay; those are over-represented in the sample as a whole. Calls of active or inactive are those of the source. No stated cut-off is given here; in the data, active means growth inhibition above about 70%; inactive means the rest. Where a SMILES comes first, the peptide text is derived from it. The star is where a group is joined. Trt = c1ccc(C(c2ccccc2)(c2ccccc2)*)cc1; Cbz = O=C(OCc1ccccc1)*
# output must be one of Y (active), N (inactive)

- COC(=O)[C@H]1O[C@H]1c1ccncc1: N
- COC/C(Br)=C\SC#N (tested in a mixture with another compound): N
- COC(=O)C(CSC(c1ccccc1)(c1ccccc1)c1ccccc1)NC(=O)C(CC(N)=O)NC(=O)OCc1ccccc1 (stereo not drawn) (Cbz-Asn-Cys(Trt)-OMe; configuration not given here): N
- CC(=O)Nc1ccc2c(c1)/C(=N/O)c1ccccc1-2: N
- CN(C)c1ccc(C2ON=C(c3ccccc3)N2C23CC4CC(CC(C4)C2)C3)cc1 (stereo unspecified): N

Query :: // param item: O=C(CCl)Oc1c(Br)cc(-c2ccccc2)cc1Br ; yields the recorded call
Result :: Y

---

test: NCI Yeast Anticancer Drug Screen. Data for the mlh1 rad18 strain (AID 175); details: S. cerevisiae mlh1 rad18 strain growth inhibition; at 5.0 µM (retest, dose inferred, filed as 0.5)
About 79,000 compounds went through this panel and 15% of them were active in at least one assay; those are over-represented in the sample as a whole. Active and inactive are the calls of the source. No stated cut-off is given here; in the data, active means growth inhibition above about 70%; inactive means the rest.
# output must be one of active, inactive

Below, 3 molecules whose answers are already recorded.
- OCC(CO)C1c2cccc3ccc4cccc1c4c23: inactive
- O=c1cccccc1O: inactive
- CC(CCNCCC#N)CC(C)(C)C (configuration not stated): inactive

Query :: Which outcome was assigned to CCCCCc1ccc2cc(C(=O)O)[nH]c2c1 in this test?
Result :: inactive

Query :: And for CN(C)CCC(/C=C/c1ccccc1)=N\Nc1ccc(Cl)cc1Cl ?
Result :: active

---

experiment: NCI Yeast Anticancer Drug Screen. Data for the sgs1 mgt1 strain (AID 161);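 note: 0% = growth of cultures given vehicle only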; conditions: S. cerevisiae sgs1 mgt1 strain, at 50.0 µM (retest, dose inferred, filed as 5.0), active compounds read high
The panel holds about 79,000 compounds, 15% with a hit somewhere; the sample as a whole holds those more often.
growth inhibition listing for selected compounds.
Expressed in %, but write only the number.

// solved cases for growth inhibition follow
* C=C(C)C(=O)OC1CC2=CC(CC3(C)OC3C3OC(=O)C(=C)C13)OC2=O (stereo not given) | 35
* CN(C)c1ccc(/C=N/N=C(\C#N)[S][Sn]([Cl])([c]2ccccc2)[c]2ccccc2)cc1 | 96
* Cn1cc(C2=CC(=O)C=CC2=O)c2ccccc21 | 98

Query :: I am curious: what growth inhibition value has been reported for CCC(CC)COC(=O)C(C)=O ?
Result :: 3

Query :: Try this compound too: COc1ccc2c(C)cc(N/N=C/c3ccc(OC)c4ccccc34)nc2c1
Result :: 99

Query :: Same thing, different compound: C[n+]1c(-c2cccc(OCCOCCOc3cccc(-c4c5cc(N)ccc5c5ccc(N)cc5[n+]4C)c3)c2)c2cc(N)ccc2c2ccc(N)cc21
Result :: 97

---

assay: NCI Yeast Anticancer Drug Screen. Data for the rad50 strain (AID 155);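 note: 0% = growth of vehicle-only cultures of the same strain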; settings: S. cerevisiae rad50 strain growth inhibition; at 50.0 µM (retest, dose inferred, filed as 5.0); active compounds read high
Compounds without any hit were thinned out: in the full panel of roughly 79,000, 15% have a hit.
Classify by measured growth inhibition: true (1) if it is equal to or exceeds 40%, false (0) if it is smaller.

* CCOC(=O)c1ccc([N+](=O)[O-])o1 | false (0)
* CS(=O)(=O)c1nc(Cl)c(Cl)c(C#N)c1Cl | true (1)
* COc1ccc(C(=O)C(CCC(=O)/C=C/c2ccccc2)S(C)(=O)=O)cc1 (stereo not given) | false (0)
* CC(=O)OC1C(C)OC(OC(=O)C2CCC3C(C2)OC2(CC(OC(=O)/C=C/c4ccccc4)C(C)CO2)C32CO2)C(OC2OC(C)C(O)C(OC(C)=O)C2O)C1O (stereo not given) | true (1)
* CCN(CC)CCNc1ccc2nnn3c4ccc([N+](=O)[O-])cc4c(=O)c1c23 | false (0)

Query :: Is it the case that O=[N+]([O-])c1cccc(S(=O)(=O)N/N=C/c2cc(I)cc([N+](=O)[O-])c2O)c1 has growth inhibition reaching or exceeding 40%?
Result :: false (0)

Query :: Entry c1ccc2c(c1)C[n+]1ccc3ccccc3c1-c1c3ccccc3cc[n+]1C2 please
Result :: false (0)

Query :: How about this molecule: CC(/C(=N/NC(=O)C(N)=O)c1c(Cl)ccc(Cl)c1O)C1(O)C(=O)Nc2ccccc21 (stereo not given)
Result :: true (1)

Query :: Can you check Nc1n[n+](-c2ccccc2)no1 next?
Result :: true (1)

---

experiment: NCI Yeast Anticancer Drug Screen. Data for the bub3 strain (AID 167); details: S. cerevisiae bub3 mutant strain, at 5.0 µM (retest, dose inferred, filed as 0.5), active compounds read high
Compounds without any hit were thinned out: in the full panel of roughly 79,000, 15% have a hit.
MEASURED PROPERTY: growth inhibition (%)
Just the number please, in %, no unit attached.

* CC1=C(C(=O)Nc2ccccc2)C(c2cccc([N+](=O)[O-])c2)C(C(=O)Nc2ccccc2)=C(C)N1 | 6

Query :: Look up growth inhibition for this molecule: C[C@@]12C(=O)OC(=O)[C@]1(C)[C@H]1CC[C@@H]2O1
Result :: 70

Query :: Here is the next molecule: CC(C)N(CN1C(=O)N/C(=C/c2cccc(/C=C3/NC(=O)N(CN(C(C)C)C(C)C)C3=O)c2)C1=O)C(C)C
Result :: 12

Query :: Try OC1(CCc2ccccc2)COC(C(F)(F)F)(C(F)(F)F)C1 (configuration not stated) next.
Result :: 5

Query :: // repeat for CC(=O)c1csc2c1C(=O)c1scc(C(C)=O)c1C2=O and report
Result :: 37

Query :: Can you handle O=C1/C(=C/O)CCc2c1ccc1ccccc21 next?
Result :: 10

Query :: Queued: CCCCCCCN(CCCCCCC)CC(O)c1ccc2ccc3ccccc3c2c1 (configuration not stated)
Result :: 16

These entries and their values trace back to PubChem BioAssay (NCI).
